Kd values for the binders below.
Tested on: T1, EsCas13d, nuclease-dead (Eubacterium siraeum, UniProt B0MS50, R295A;H300A;R849A;H854A)
T1 sequence: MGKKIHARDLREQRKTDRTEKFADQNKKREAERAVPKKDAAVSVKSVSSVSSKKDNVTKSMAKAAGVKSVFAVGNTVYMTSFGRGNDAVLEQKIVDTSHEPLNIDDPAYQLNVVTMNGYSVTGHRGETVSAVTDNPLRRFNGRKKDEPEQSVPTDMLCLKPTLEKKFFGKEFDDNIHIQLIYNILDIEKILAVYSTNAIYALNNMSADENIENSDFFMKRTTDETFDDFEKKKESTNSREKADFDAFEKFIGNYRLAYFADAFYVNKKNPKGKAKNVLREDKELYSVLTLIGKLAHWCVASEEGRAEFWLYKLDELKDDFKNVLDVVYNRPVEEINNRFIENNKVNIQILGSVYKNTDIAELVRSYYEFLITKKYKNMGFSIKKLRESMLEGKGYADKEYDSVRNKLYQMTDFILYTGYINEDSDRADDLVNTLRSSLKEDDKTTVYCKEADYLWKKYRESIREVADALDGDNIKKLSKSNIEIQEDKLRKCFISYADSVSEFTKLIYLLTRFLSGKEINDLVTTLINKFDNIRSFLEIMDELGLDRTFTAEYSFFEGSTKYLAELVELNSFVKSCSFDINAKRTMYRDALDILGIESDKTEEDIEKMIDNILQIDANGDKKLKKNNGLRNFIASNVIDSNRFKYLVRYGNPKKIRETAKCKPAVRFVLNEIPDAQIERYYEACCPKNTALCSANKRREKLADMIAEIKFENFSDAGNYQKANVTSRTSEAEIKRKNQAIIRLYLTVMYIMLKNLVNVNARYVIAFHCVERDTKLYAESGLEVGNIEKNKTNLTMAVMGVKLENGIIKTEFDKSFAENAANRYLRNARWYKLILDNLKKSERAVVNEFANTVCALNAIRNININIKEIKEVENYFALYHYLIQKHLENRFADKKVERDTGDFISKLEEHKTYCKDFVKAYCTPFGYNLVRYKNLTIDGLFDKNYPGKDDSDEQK
Method summary: crRNA (strand 1, pre-loaded); Mg2+; 40 mM Tris-HCl pH 7.5, 150 mM NaCl, 6 mM MgCl2, 1 mM DTT, 0.1% Tween-20, 0.2 mg/ml BSA; 25 C; 10 min per concentration, then washed
Condition set: tags: His6-TwinStrep-SUMO cleaved; N-terminal SNAP kept (SNAP-Surface 488); label: 3' end held by stalled T7 RNA polymerase
Observation type: Kd (nM)

* target 2 MT 5'PFS AGC 3'PFS UUA (mixed) RNA 1: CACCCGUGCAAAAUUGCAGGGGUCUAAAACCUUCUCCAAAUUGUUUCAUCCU RNA 2: GGGAAUGGAUCCACAUCUACGAAUUCAGCAGGAUGAAACAAUUUGGAGAAGUUAAGAUCGGAAGAGCACACGU | 10.9
* target 1 insU 3' of 22,insC 3' of 20 (mixed) RNA 1: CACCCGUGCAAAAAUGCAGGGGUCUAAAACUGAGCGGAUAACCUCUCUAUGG RNA 2: GGGAAUGGAUCCACAUCUACGAAUUCGUACUCACUAGAGAGGUUAUCCGCUCACCGAGAUCGGAAGAGCACACGU | 18.3
* target 2 MT 5'PFS ACC 3'PFS UUA (mixed) RNA 1: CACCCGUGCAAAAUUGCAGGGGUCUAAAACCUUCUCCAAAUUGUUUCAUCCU RNA 2: GGGAAUGGAUCCACAUCUACGAAUUCACCAGGAUGAAACAAUUUGGAGAAGUUAAGAUCGGAAGAGCACACGU | 9.6
* target 1 insU 3' of 5,insG 3' of 4 (mixed) RNA 1: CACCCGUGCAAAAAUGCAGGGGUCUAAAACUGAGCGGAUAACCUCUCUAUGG RNA 2: GGGAAUGGAUCCACAUCUACGAAUUCGUACCAUAGAGAGGUUAUCCGUCGUCACCGAGAUCGGAAGAGCACACGU | 12.7

Source: paper PMC10786891
